Molecular target: Lysosomal acid glucosylceramidase (Homo sapiens)
Assay: Inhibition of beta-glucocerebrosidase in human fibroblast at 50 uM after 24 hrs by fluorescence assay
measurement kind: inhibition

Consider the worked cases shown below.
The observed inhibition for CCCCCCCCCn1cc(CCN[C@H]2[C@H](O)[C@@H](O)[C@H](O)[C@@H](O)[C@@H]2O)nn1 when tested with Lysosomal acid glucosylceramidase (Homo sapiens) stands at < 5%

Measured inhibition (Lysosomal acid glucosylceramidase (Homo sapiens)), entry CCCCCCCCCCCCn1cc(CN[C@H]2[C@H](O)[C@@H](O)[C@H](O)[C@@H](O)[C@@H]2O)nn1 : Toxic

Bench note, Lysosomal acid glucosylceramidase (Homo sapiens): O[C@@H]1[C@@H](O)[C@H](O)[C@@H](NCc2cn(CCc3ccccc3)nn2)[C@H](O)[C@H]1O , inhibition reads < 5%

Entry CCCCCCCCCn1cc(CN[C@H]2[C@H](O)[C@@H](O)[C@H](O)[C@@H](O)[C@@H]2O)nn1 under Lysosomal acid glucosylceramidase (Homo sapiens) had inhibition of 50%

Others:
I looked up CCCCCCn1cc(CCCN[C@H]2[C@H](O)[C@@H](O)[C@H](O)[C@@H](O)[C@@H]2O)nn1 and its inhibition for Lysosomal acid glucosylceramidase (Homo sapiens) was < 5%

# CCCCCCCCn1cc(CN[C@H]2[C@H](O)[C@@H](O)[C@H](O)[C@@H](O)[C@@H]2O)nn1 with Lysosomal acid glucosylceramidase (Homo sapiens): inhibition is 20%
